The entries below come with measured target mRNA knockdown values attached.
condition: siRNA; also: test system not given here
HELM strings list units from the 5' end as sugar, base in round brackets, then linkage (d deoxyribose, r ribose, m 2'-O-methyl, p phosphodiester). Strings are as the collection lists them, not checked against the first reports. ss, as = sense and antisense strand
measured.endpoint: target mRNA knockdown (%)

substance: RNA1{m(U)p.r(G)p.m(A)p.r(A)p.m(C)p.r(G)p.m(U)p.r(C)p.m(A)p.r(C)p.m(C)p.r(G)p.m(A)p.r(G)p.m(G)p.r(A)p.m(G)p.r(A)p.m(A)p.r(T)p.r(T)}|RNA2{r(U)p.r(U)p.r(C)p.r(U)p.r(C)p.r(C)p.r(U)p.r(C)p.r(G)p.r(G)p.r(U)p.r(G)p.m(A)p.r(C)p.r(G)p.r(U)p.r(U)p.r(C)p.m(A)p.r(T)p.r(T)}$$$RNA1{StrandType:ss}|RNA2{StrandType:as}$
measured.endpoint: target mRNA knockdown
measured.value: 65
//
substance: RNA1{m(A)p.r(A)p.m(A)p.r(C)p.m(C)p.r(C)p.m(C)p.r(U)p.m(A)p.r(G)p.m(A)p.r(G)p.m(G)p.r(G)p.m(C)p.r(A)p.m(A)p.r(G)p.m(U)p.r(T)p.r(T)}|RNA2{r(A)p.r(C)p.r(U)p.r(U)p.r(G)p.r(C)p.r(C)p.r(C)p.r(U)p.r(C)p.r(U)p.r(A)p.r(G)p.r(G)p.r(G)p.r(G)p.r(U)p.r(U)p.r(U)p.r(T)p.r(T)}$$$RNA1{StrandType:ss}|RNA2{StrandType:as}$
measured.endpoint: target mRNA knockdown
measured.value: 62

---

condition: siRNA
HELM strings list units from the 5' end as sugar, base in round brackets, then linkage (d deoxyribose, r ribose, m 2'-O-methyl, p phosphodiester). Strings are as the collection lists them, not checked against the first reports. ss, as = sense and antisense strand; [s4r] = 4'-thioribose; [fl2r] = 2'-fluoro
Listed here: items and their measured target mRNA knockdown.
measured.endpoint: target mRNA knockdown (%)

substance: RNA1{m(G)p.r(G)p.m(C)p.r(G)p.m(G)p.r(G)p.m(C)p.r(U)p.m(C)p.r(U)p.m(U)p.r(U)p.m(C)p.r(C)p.m(U)p.r(A)p.m(U)p.r(U)p.m(C)p.r(T)p.r(T)}|RNA2{r(G)p.r(A)p.r(A)p.r(U)p.r(A)p.r(G)p.r(G)p.r(A)p.r(A)p.r(A)p.r(G)p.r(A)p.r(G)p.r(C)p.r(C)p.r(C)p.r(G)p.r(C)p.r(C)p.r(T)p.r(T)}$$$RNA1{StrandType:ss}|RNA2{StrandType:as}$
unit.descriptor: %
measured.value: 51

substance: RNA1{r(G)p.r(A)p.r(G)p.[fl2r](U)p.r(A)p.r(U)p.r(U)p.r(U)p.r(C)p.r(C)p.r(G)p.r(C)p.r(U)p.r(G)p.r(G)p.r(A)p.r(A)p.r(C)p.r(U)p.r(T)p.r(T)}|RNA2{r(A)p.r(G)p.r(U)p.r(U)p.r(C)p.r(C)p.r(A)p.r(G)p.r(C)p.r(G)p.r(G)p.r(A)p.r(A)p.r(A)p.[fl2r](U)p.r(A)p.r(C)p.r(U)p.r(C)p.r(T)p.r(T)}$$$RNA1{StrandType:ss}|RNA2{StrandType:as}$
unit.descriptor: %
measured.value: 75

substance: RNA1{[s4r](C)p.[s4r](G)p.[s4r](U)p.[s4r](A)p.r(C)p.r(G)p.r(C)p.r(G)p.r(G)p.r(A)p.r(A)p.r(U)p.r(A)p.r(C)p.r(U)p.[s4r](U)p.[s4r](C)p.[s4r](G)p.[s4r](A)p.r(T)p.r(T)}|RNA2{[s4r](U)p.[s4r](C)p.[s4r](G)p.[s4r](A)p.r(A)p.r(G)p.r(U)p.r(A)p.r(U)p.r(U)p.r(C)p.r(C)p.r(G)p.r(C)p.r(G)p.[s4r](U)p.[s4r](A)p.[s4r](C)p.[s4r](G)p.r(T)p.r(T)}$$$RNA1{StrandType:ss}|RNA2{StrandType:as}$
unit.descriptor: %
measured.value: 0
